tested system: Tyrosine-protein kinase JAK2 (Homo sapiens, UniProt O60674)
Sequence (O60674 whole entry): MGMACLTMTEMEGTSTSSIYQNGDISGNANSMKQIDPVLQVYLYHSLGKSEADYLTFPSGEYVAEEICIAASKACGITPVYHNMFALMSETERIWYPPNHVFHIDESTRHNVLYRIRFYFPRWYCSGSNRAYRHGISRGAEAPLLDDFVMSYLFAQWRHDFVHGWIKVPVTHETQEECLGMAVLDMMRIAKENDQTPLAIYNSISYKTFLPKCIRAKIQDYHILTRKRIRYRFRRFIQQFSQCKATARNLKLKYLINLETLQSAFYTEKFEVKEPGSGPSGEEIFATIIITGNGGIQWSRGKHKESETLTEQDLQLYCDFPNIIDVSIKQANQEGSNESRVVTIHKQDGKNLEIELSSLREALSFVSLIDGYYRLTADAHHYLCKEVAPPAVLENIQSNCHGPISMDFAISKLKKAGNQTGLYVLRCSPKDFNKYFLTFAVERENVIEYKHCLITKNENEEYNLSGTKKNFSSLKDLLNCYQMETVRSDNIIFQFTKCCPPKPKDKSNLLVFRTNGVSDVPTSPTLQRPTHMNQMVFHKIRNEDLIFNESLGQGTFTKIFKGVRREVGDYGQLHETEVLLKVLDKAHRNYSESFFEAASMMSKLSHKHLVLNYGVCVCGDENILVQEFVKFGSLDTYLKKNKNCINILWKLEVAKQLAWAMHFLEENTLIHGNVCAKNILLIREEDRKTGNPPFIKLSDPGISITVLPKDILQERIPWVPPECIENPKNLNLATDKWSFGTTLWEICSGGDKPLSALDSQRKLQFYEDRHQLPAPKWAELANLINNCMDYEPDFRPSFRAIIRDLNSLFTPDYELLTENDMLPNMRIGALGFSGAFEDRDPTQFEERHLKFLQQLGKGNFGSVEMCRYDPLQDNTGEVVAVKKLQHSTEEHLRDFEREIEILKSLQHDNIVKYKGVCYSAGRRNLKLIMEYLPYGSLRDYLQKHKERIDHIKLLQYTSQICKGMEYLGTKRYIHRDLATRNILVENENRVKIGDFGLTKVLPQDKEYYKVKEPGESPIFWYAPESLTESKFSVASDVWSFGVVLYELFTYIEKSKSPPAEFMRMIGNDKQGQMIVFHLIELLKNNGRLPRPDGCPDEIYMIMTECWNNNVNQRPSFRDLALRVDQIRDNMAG
reported metric: IC50 (nM)

P: N#CC[C@@H](NCC1CCC(N2C=CC(=O)C3C=Nc4[nH]ccc4C32)CC1)C(F)(F)F (stereo partly drawn)
Q: Cc1cnn(CC2CCC(N3C=CC(=O)C4C=Nc5[nH]ccc5C43)CC2)c1 (stereo not drawn)
Hi there! Just curious which has the higher IC50 between P and Q . Identify your selection by its label.
P
(P: 5.1 nM, Q: 1.9 nM)

* * *

IC50 values recorded for Non-receptor tyrosine-protein kinase TYK2 (Homo sapiens, UniProt P29597)
reported metric: IC50 (nM)

Study these solved cases before continuing.
compound="N#CC[C@H](OCC1CCC(N2C=CC(=O)C3C=Nc4[nH]ccc4C32)CC1)C(F)(F)F (stereo not given in full)" observed_measurement=11
compound="O=C1C=CN(C2CCC(COCCC(F)(F)F)CC2)C2c3cc[nH]c3N=CC12 (stereo not given)" observed_measurement=19

A: N#CC[C@@H](NCC1CCC(N2C=CC(=O)C3C=Nc4[nH]ccc4C32)CC1)C(F)(F)F (stereo not given in full)
B: O=C1NC(=O)[C@@H](C2CCC(COCCC(F)(F)F)CC2)C2c3cc[nH]c3N=CC12 (stereo not given in full)
C: Cc1cnn(CC2CCC(N3C=CC(=O)C4C=Nc5[nH]ccc5C43)CC2)c1 (stereo not given)
Could you please sort these 3 entries by IC50 from high to low? A complete answer lists every label in the requested sequence.
C, B, A
(C: 39 nM, B: 26 nM, A: 18 nM)

* * *

tested system: Tyrosine-protein kinase JAK3 (Homo sapiens)
Sequence (P52333 whole entry): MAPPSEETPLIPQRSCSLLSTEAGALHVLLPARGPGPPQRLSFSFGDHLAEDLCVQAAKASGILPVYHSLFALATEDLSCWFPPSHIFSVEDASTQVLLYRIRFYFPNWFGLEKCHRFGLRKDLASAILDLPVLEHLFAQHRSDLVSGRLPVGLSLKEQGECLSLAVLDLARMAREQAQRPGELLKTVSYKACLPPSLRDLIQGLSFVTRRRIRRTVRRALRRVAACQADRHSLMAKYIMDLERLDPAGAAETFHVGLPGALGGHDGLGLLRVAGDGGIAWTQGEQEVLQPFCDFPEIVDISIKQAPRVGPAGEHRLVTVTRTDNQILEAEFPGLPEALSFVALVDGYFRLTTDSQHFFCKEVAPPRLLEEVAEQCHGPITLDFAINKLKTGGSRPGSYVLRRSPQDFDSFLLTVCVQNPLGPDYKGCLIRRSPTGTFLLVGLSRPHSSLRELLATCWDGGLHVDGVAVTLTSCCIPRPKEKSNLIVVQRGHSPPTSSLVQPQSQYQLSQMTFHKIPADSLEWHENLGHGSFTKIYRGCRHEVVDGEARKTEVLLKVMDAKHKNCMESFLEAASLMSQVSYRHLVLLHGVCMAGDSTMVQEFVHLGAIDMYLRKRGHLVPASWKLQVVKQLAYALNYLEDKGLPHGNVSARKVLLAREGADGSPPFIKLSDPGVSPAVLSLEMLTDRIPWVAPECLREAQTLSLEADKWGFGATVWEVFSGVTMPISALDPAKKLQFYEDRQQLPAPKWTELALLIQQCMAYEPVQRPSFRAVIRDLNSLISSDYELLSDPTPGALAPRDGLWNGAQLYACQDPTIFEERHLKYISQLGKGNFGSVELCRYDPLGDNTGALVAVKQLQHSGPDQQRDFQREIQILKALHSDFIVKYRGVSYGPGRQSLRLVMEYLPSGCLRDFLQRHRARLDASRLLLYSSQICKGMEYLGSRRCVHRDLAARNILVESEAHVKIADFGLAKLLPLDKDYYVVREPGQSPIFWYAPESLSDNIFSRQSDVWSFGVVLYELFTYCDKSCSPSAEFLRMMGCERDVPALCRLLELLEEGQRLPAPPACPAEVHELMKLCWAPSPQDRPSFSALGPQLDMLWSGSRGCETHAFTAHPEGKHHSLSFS
pIC50: −log10 of the molar value.
reported metric: pIC50

compound="O=C1C=CN(C2CCC(COCC(F)(F)F)CC2)C2c3cc[nH]c3N=CC12 (stereo not drawn)" observed_measurement=8.57
compound="O=C1C=CN(C2CCC(COCCC(F)(F)F)CC2)C2c3cc[nH]c3N=CC12 (stereo not drawn)" observed_measurement=8.60
compound="O=C1NC(=O)[C@@H](C2CCC(COCCC(F)(F)F)CC2)C2c3cc[nH]c3N=CC12 (stereo partly drawn)" observed_measurement=8.54

Origin of the recorded values: ChEMBL document CHEMBL5727262
